Molecular target: recombinant PRL-1 (Homo sapiens, UniProt Q93096)
Construct: 6xHis (N, cleaved yes); made in house; host or cells: E. coli One Shot BL21 Star
Sequence (Q93096 1-173): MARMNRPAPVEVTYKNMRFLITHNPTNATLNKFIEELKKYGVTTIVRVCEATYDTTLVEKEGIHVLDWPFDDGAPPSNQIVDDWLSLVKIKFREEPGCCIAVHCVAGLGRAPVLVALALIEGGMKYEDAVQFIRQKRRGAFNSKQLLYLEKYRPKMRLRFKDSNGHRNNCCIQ
Experiment: In vitro phosphatase assay (DiFMUP hydrolysis), PRL-1; also: test concentration or dose not given here
Type: biochemical
Conditions: FDA-approved drug screen; compared to DMSO
Where a name gives a salt, the structure may show the parent alone.
Below is a list of entries, each paired with its recorded % Phosphatase Activity (compared to DMSO) PRL-1 value.
ENDPOINT_LABEL: % Phosphatase Activity (compared to DMSO) PRL-1 (%)

{"COMPOUND": "O=S(=O)(O)c1cc(O)ccc1O [Ethamsylate]", "TEST_TARGET": "recombinant PRL-1 (Homo sapiens, UniProt Q93096)", "UNIT_OF_MEASUREMENT": "%", "RECORDED_MEASUREMENT": 96}
{"COMPOUND": "CCCc1nc(C(C)(C)O)c(C(=O)OCc2oc(=O)oc2C)n1Cc1ccc(-c2ccccc2-c2nnn[nH]2)cc1 [Olmesartan Medoxomil]", "TEST_TARGET": "recombinant PRL-1 (Homo sapiens, UniProt Q93096)", "UNIT_OF_MEASUREMENT": "%", "RECORDED_MEASUREMENT": 97}
{"COMPOUND": "CN(C)CCC[C@@]1(c2ccc(F)cc2)OCc2cc(C#N)ccc21 [Escitalopram Oxalate]", "TEST_TARGET": "recombinant PRL-1 (Homo sapiens, UniProt Q93096)", "UNIT_OF_MEASUREMENT": "%", "RECORDED_MEASUREMENT": 89}
{"COMPOUND": "Cl.NCCS [Cysteamine HCl]", "TEST_TARGET": "recombinant PRL-1 (Homo sapiens, UniProt Q93096)", "UNIT_OF_MEASUREMENT": "%", "RECORDED_MEASUREMENT": 91}
{"COMPOUND": "C=C(c1ccc(C(=O)O)cc1)c1cc2c(cc1C)C(C)(C)CCC2(C)C [Bexarotene]", "TEST_TARGET": "recombinant PRL-1 (Homo sapiens, UniProt Q93096)", "UNIT_OF_MEASUREMENT": "%", "RECORDED_MEASUREMENT": 81}
{"COMPOUND": "C[C@@H](O)[C@H]1C(=O)N2C(C(=O)O)=C(S[C@@H]3CN[C@H](CNS(N)(=O)=O)C3)[C@H](C)[C@H]12.O [Doripenem Hydrate]", "TEST_TARGET": "recombinant PRL-1 (Homo sapiens, UniProt Q93096)", "UNIT_OF_MEASUREMENT": "%", "RECORDED_MEASUREMENT": 107}
{"COMPOUND": "O=C(C1CCCCC1)N1CC(=O)N2CCc3ccccc3C2C1 (stereo not shown) [Praziquantel]", "TEST_TARGET": "recombinant PRL-1 (Homo sapiens, UniProt Q93096)", "UNIT_OF_MEASUREMENT": "%", "RECORDED_MEASUREMENT": 102}
{"COMPOUND": "CC(=O)O[C@@]12CO[C@@H]1C[C@H](O)[C@@]1(C)C(=O)[C@H](O)C3=C(C)[C@@H](OC(=O)[C@H](O)[C@@H](NC(=O)OC(C)(C)C)c4ccccc4)C[C@@](O)([C@@H](OC(=O)c4ccccc4)[C@H]21)C3(C)C [Docetaxel]", "TEST_TARGET": "recombinant PRL-1 (Homo sapiens, UniProt Q93096)", "UNIT_OF_MEASUREMENT": "%", "RECORDED_MEASUREMENT": 87}
{"COMPOUND": "CO[C@H]1/C=C/O[C@@]2(C)Oc3c(C)c(O)c4c(c3C2=O)C2=NC3(CCN(CC(C)C)CC3)NC2=C(NC(=O)/C(C)=C\\C=C\\[C@H](C)[C@H](O)[C@@H](C)[C@@H](O)[C@@H](C)[C@H](OC(C)=O)[C@@H]1C)C4=O [Rifabutin]", "TEST_TARGET": "recombinant PRL-1 (Homo sapiens, UniProt Q93096)", "UNIT_OF_MEASUREMENT": "%", "RECORDED_MEASUREMENT": 61}
{"COMPOUND": "CCCCC[C@H](O)/C=C/[C@H]1[C@H](O)CC(=O)[C@@H]1CCCCCCC(=O)O [Alprostadil]", "TEST_TARGET": "recombinant PRL-1 (Homo sapiens, UniProt Q93096)", "UNIT_OF_MEASUREMENT": "%", "RECORDED_MEASUREMENT": 117}
{"COMPOUND": "CC(=O)O.CC(=O)O.CC[C@H](C)C[C@H](C)CCCCCCCCC(=O)N[C@H]1C[C@@H](O)[C@@H](NCCN)NC(=O)[C@@H]2[C@@H](O)CCN2C(=O)[C@H]([C@H](O)CCN)NC(=O)[C@H]([C@H](O)[C@@H](O)c2ccc(O)cc2)NC(=O)[C@@H]2C[C@@H](O)CN2C(=O)[C@H]([C@@H](C)O)NC1=O [Caspofungin Acetate]", "TEST_TARGET": "recombinant PRL-1 (Homo sapiens, UniProt Q93096)", "UNIT_OF_MEASUREMENT": "%", "RECORDED_MEASUREMENT": 106}
{"COMPOUND": "Cc1c(-c2ccnn2C)cc(C(=O)NCc2ccc(S(C)(=O)=O)cn2)c(=O)n1-c1cccc(C(F)(F)F)c1 [Alvelestat (AZD9668)]", "TEST_TARGET": "recombinant PRL-1 (Homo sapiens, UniProt Q93096)", "UNIT_OF_MEASUREMENT": "%", "RECORDED_MEASUREMENT": 138}
{"COMPOUND": "CC(=O)OCC(=O)[C@@]1(O)CC[C@H]2[C@@H]3CCC4=CC(=O)CC[C@]4(C)[C@H]3C(=O)C[C@@]21C [Cortisone acetate]", "TEST_TARGET": "recombinant PRL-1 (Homo sapiens, UniProt Q93096)", "UNIT_OF_MEASUREMENT": "%", "RECORDED_MEASUREMENT": 98}

====

Target: recombinant PRL-1 (Homo sapiens)
Construct: 6xHis (N, cleaved yes); made in house; host or cells: E. coli One Shot BL21 Star
Assay: In vitro phosphatase assay (DiFMUP hydrolysis), PRL-1; also: test concentration or dose not given here
Assay type: biochemical
Details: FDA-approved drug screen; activity compared to DMSO
Counter-ions that a name gives are not always drawn.
Below is a list of entries, each paired with its recorded % Phosphatase Activity (compared to DMSO) PRL-1 value.
ENDPOINT_LABEL: % Phosphatase Activity (compared to DMSO) PRL-1 (%)

{"COMPOUND": "CC(C)(C)C#Cc1cc(N(C(=O)[C@H]2CC[C@H](C)CC2)[C@H]2CC[C@H](O)CC2)c(C(=O)O)s1", "UNIT_OF_MEASUREMENT": "%", "RECORDED_MEASUREMENT": 91}
{"COMPOUND": "CCOC(=O)N[C@@H]1CC[C@@H]2[C@@H](C1)C[C@H]1C(=O)O[C@H](C)[C@H]1[C@H]2/C=C/c1ccc(-c2cccc(F)c2)cn1", "UNIT_OF_MEASUREMENT": "%", "RECORDED_MEASUREMENT": 95}
{"COMPOUND": "Cc1[nH]c(/C=C2\\C(=O)Nc3ccccc32)c(C)c1CCC(=O)O [TSU-68 (SU6668, Orantinib)]", "UNIT_OF_MEASUREMENT": "%", "RECORDED_MEASUREMENT": 75}
{"COMPOUND": "CNC(=O)c1cc(Oc2ccc(NC(=O)Nc3ccc(Cl)c(C(F)(F)F)c3)cc2)ccn1 [Sorafenib Tosylate]", "UNIT_OF_MEASUREMENT": "%", "RECORDED_MEASUREMENT": 85}
{"COMPOUND": "CC[C@H]1OC(=O)C[C@@H](O)[C@H](C)[C@@H](O[C@@H]2O[C@H](C)[C@@H](O[C@H]3C[C@@](C)(O)[C@@H](O)[C@H](C)O3)[C@H](N(C)C)[C@H]2O)[C@@H](CC=O)C[C@@H](C)C(=O)/C=C/C(C)=C/[C@@H]1CO[C@@H]1O[C@H](C)[C@@H](O)[C@@H](OC)[C@H]1OC.O=C(O)C(O)C(O)C(=O)O [Tylosin tartrate]", "UNIT_OF_MEASUREMENT": "%", "RECORDED_MEASUREMENT": 95}

====

Below is a list of entries, each paired with its recorded % Phosphatase Activity (compared to DMSO) PRL-2 value.
Biological target: recombinant PRL-2 (Homo sapiens, UniProt Q12974)
Construct: 6xHis (N, cleaved yes); made in house; host or cells: E. coli One Shot BL21 Star
Sequence (Q12974 whole entry): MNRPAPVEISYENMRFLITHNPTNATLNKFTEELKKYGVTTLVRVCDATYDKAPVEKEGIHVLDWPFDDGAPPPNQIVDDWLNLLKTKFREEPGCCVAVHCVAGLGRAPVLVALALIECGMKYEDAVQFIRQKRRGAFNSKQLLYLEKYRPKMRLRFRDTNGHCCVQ
Experiment: In vitro phosphatase assay (DiFMUP hydrolysis), PRL-2;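 also: PRL-2 activity read as DiFMUP hydrolysis after 20 min at room temperature with drug, enzyme first pre-reduced at 4 °C for 20 min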
Format: biochemical
Settings: FDA-approved drug screen; compared to DMSO
Where a name gives a salt, the structure may show the parent alone.
ENDPOINT_LABEL: % Phosphatase Activity (compared to DMSO) PRL-2 (%)

{"COMPOUND": "Cc1nc(-c2ccc(OCC(C)C)c(C#N)c2)sc1C(=O)O [Febuxostat]", "RECORDED_MEASUREMENT": 85}
{"COMPOUND": "CCOc1ccc(NC(C)=O)cc1 [Phenacetin]", "RECORDED_MEASUREMENT": 114}
{"COMPOUND": "O=C(NC1CCN(CCCCC2(C(=O)NCC(F)(F)F)c3ccccc3-c3ccccc32)CC1)c1ccccc1-c1ccc(C(F)(F)F)cc1 [Lomitapide Mesylate]", "RECORDED_MEASUREMENT": 119}
{"COMPOUND": "CN1CCOC(c2ccccc2)c2ccccc2C1 (stereo not drawn) [Nefopam HCl]", "RECORDED_MEASUREMENT": 87}
{"COMPOUND": "Cl.NCCCC(N)(C(=O)O)C(F)F.O (stereo not drawn) [Eflornithine hydrochloride hydrate]", "RECORDED_MEASUREMENT": 84}
{"COMPOUND": "NC(=O)CN1CC(O)CC1=O (stereo not drawn) [Oxiracetam]", "RECORDED_MEASUREMENT": 122}
{"COMPOUND": "Cl.O=C(O)/C=C/c1ccc(Cn2ccnc2)cc1 [Ozagrel HCl]", "RECORDED_MEASUREMENT": 120}
{"COMPOUND": "CN1CCC[C@@H]1Cc1c[nH]c2ccc(CCS(=O)(=O)c3ccccc3)cc12 [Eletriptan HBr]", "RECORDED_MEASUREMENT": 121}
{"COMPOUND": "CC[C@H]1CN2CC[C@H]1C[C@@H]2[C@@H](O)c1ccnc2ccc(OC)cc12 [Hydroquinidine]", "RECORDED_MEASUREMENT": 120}
